# System: bone calcium mobilization
# assay overview: bone calcium mobilization (serum Ca) in vitamin D-deficient rats on a low-calcium diet
# Type: in vivo
# condition parameters: 130 pmol daily i.p. for seven days; vitamin D-deficient rats, low-calcium diet; 24 hours after the last dose
result type: Serum Ca (mean ± SEM)

These solved cases illustrate the format of a correct answer.
CC=C1[C@H](O)CC(=C/C=C2\CCC[C@@]3(C)C2CCC3[C@@H](C)CCCC(C)(C)O)C[C@H]1O (stereo partly shown) [Compound 4b]	12.1 ± 0.6
CC=C1[C@H](O)CC(=C/C=C2\CCC[C@@]3(C)C2CCC3[C@@H](C)CCCC(C)(C)O)C[C@H]1O (stereo partly shown) [Compound 5b]	4.0 ± 0.1
CC=C1C(O)CC(=CC=C2CCCC3(C)C2CCC3C(C)CCCC(C)(C)O)CC1O (stereo not shown) [Compound 4a]	5.2 ± 0.2

We now examine a further compound.
Challenge: What measured Serum Ca (mean ± SEM) goes with CC=C1C(O)CC(=CC=C2CCCC3(C)C2CCC3C(C)CCCC(C)(C)O)CC1O (stereo not shown) [Compound 5a] ?
Response given: 4.2 ± 0.0
